Cited source for all entries: patent US20190083585

Readings of Fold Change in Activity of PQ Hydrolysis Relative to Wild Type Kumamolysin-As for the listed proteins
target.entity: T1, fluorescently quenched α-gliadin hexapeptide analogue QXL520-PQPQLP-K(5-FAM)-NH2
T1 chain: PQPQLP
reported.property: Fold Change in Activity of PQ Hydrolysis Relative to Wild Type Kumamolysin-As

protein	result
Kumamolisin-As T292S, N291D, G319S, D358G, D368H (protein) AAPTAYTPLDVAQAYQFPEGLDGQGQCIAIIELGGGYDEASLAQYFASLGVPAPQVVSVSVDGASNQPTGDPSGPDGEVELDIEVAGALAPGAKFAVYFAPDSDAGFLDAITTAIHDPTLKPSVVSISWSGPEDSWTSAAIAAMNRAFLDAAALGVTVLAAAGDSGSTGGEQDGLYHVHFPAASPYVLACGGTRLVASGGRIAQETVWNDGPDGGATGGGVSRIFPLPAWQEHANVPPSANPGASSGRGVPDLAGNADPATGYEVVIDGEATVIGGTSAVAPLFAALVARINQKLGKAVGYLNPTLYQLPADVFHDITEGNNDIANRAQIYQAGPGWDPCTGLGSPIGVRLLQALLPSASQPQPGSTENLYFQSGALEHHHHHH	49 fold
Kumamolisin-As N291D, G319S, S354N, D358G, D368H (protein) AAPTAYTPLDVAQAYQFPEGLDGQGQCIAIIELGGGYDEASLAQYFASLGVPAPQVVSVSVDGASNQPTGDPSGPDGEVELDIEVAGALAPGAKFAVYFAPDTDAGFLDAITTAIHDPTLKPSVVSISWSGPEDSWTSAAIAAMNRAFLDAAALGVTVLAAAGDNGSTGGEQDGLYHVHFPAASPYVLACGGTRLVASGGRIAQETVWNDGPDGGATGGGVSRIFPLPAWQEHANVPPSANPGASSGRGVPDLAGNADPATGYEVVIDGEATVIGGTSAVAPLFAALVARINQKLGKAVGYLNPTLYQLPADVFHDITEGNNDIANRAQIYQAGPGWDPCTGLGSPIGVRLLQALLPSASQPQPGSTENLYFQSGALEHHHHHH	54.6 fold
Kumamolisin-As D358G (protein) AAPTAYTPLDVAQAYQFPEGLDGQGQCIAIIELGGGYDEASLAQYFASLGVPAPQVVSVSVDGASNQPTGDPSGPDGEVELDIEVAGALAPGAKFAVYFAPNTDAGFLDAITTAIHDPTLKPSVVSISWGGPEDSWTSAAIAAMNRAFLDAAALGVTVLAAAGDSGSTGGEQDGLYHVDFPAASPYVLACGGTRLVASGGRIAQETVWNDGPDGGATGGGVSRIFPLPAWQEHANVPPSANPGASSGRGVPDLAGNADPATGYEVVIDGEATVIGGTSAVAPLFAALVARINQKLGKAVGYLNPTLYQLPADVFHDITEGNNDIANRAQIYQAGPGWDPCTGLGSPIGVRLLQALLPSASQPQPGSTENLYFQSGALEHHHHHH	3 fold
Kumamolisin-As N291D, G319S, D358G, Q361D, D368H (protein) AAPTAYTPLDVAQAYQFPEGLDGQGQCIAIIELGGGYDEASLAQYFASLGVPAPQVVSVSVDGASNQPTGDPSGPDGEVELDIEVAGALAPGAKFAVYFAPDTDAGFLDAITTAIHDPTLKPSVVSISWSGPEDSWTSAAIAAMNRAFLDAAALGVTVLAAAGDSGSTGGEDDGLYHVHFPAASPYVLACGGTRLVASGGRIAQETVWNDGPDGGATGGGVSRIFPLPAWQEHANVPPSANPGASSGRGVPDLAGNADPATGYEVVIDGEATVIGGTSAVAPLFAALVARINQKLGKAVGYLNPTLYQLPADVFHDITEGNNDIANRAQIYQAGPGWDPCTGLGSPIGVRLLQALLPSASQPQPGSTENLYFQSGALEHHHHHH	23.1 fold
Kumamolisin-As D358G, D368H (protein) AAPTAYTPLDVAQAYQFPEGLDGQGQCIAIIELGGGYDEASLAQYFASLGVPAPQVVSVSVDGASNQPTGDPSGPDGEVELDIEVAGALAPGAKFAVYFAPNTDAGFLDAITTAIHDPTLKPSVVSISWGGPEDSWTSAAIAAMNRAFLDAAALGVTVLAAAGDSGSTGGEQDGLYHVHFPAASPYVLACGGTRLVASGGRIAQETVWNDGPDGGATGGGVSRIFPLPAWQEHANVPPSANPGASSGRGVPDLAGNADPATGYEVVIDGEATVIGGTSAVAPLFAALVARINQKLGKAVGYLNPTLYQLPADVFHDITEGNNDIANRAQIYQAGPGWDPCTGLGSPIGVRLLQALLPSASQPQPGSTENLYFQSGALEHHHHHH	6 fold
Kumamolisin-As G319S, D358G, D368H (protein) AAPTAYTPLDVAQAYQFPEGLDGQGQCIAIIELGGGYDEASLAQYFASLGVPAPQVVSVSVDGASNQPTGDPSGPDGEVELDIEVAGALAPGAKFAVYFAPNTDAGFLDAITTAIHDPTLKPSVVSISWSGPEDSWTSAAIAAMNRAFLDAAALGVTVLAAAGDSGSTGGEQDGLYHVHFPAASPYVLACGGTRLVASGGRIAQETVWNDGPDGGATGGGVSRIFPLPAWQEHANVPPSANPGASSGRGVPDLAGNADPATGYEVVIDGEATVIGGTSAVAPLFAALVARINQKLGKAVGYLNPTLYQLPADVFHDITEGNNDIANRAQIYQAGPGWDPCTGLGSPIGVRLLQALLPSASQPQPGSTENLYFQSGALEHHHHHH	7 fold
Kumamolisin-As N291D (protein) AAPTAYTPLDVAQAYQFPEGLDGQGQCIAIIELGGGYDEASLAQYFASLGVPAPQVVSVSVDGASNQPTGDPSGPDGEVELDIEVAGALAPGAKFAVYFAPDTDAGFLDAITTAIHDPTLKPSVVSISWGGPEDSWTSAAIAAMNRAFLDAAALGVTVLAAAGDSGSTDGEQDGLYHVDFPAASPYVLACGGTRLVASGGRIAQETVWNDGPDGGATGGGVSRIFPLPAWQEHANVPPSANPGASSGRGVPDLAGNADPATGYEVVIDGEATVIGGTSAVAPLFAALVARINQKLGKAVGYLNPTLYQLPADVFHDITEGNNDIANRAQIYQAGPGWDPCTGLGSPIGVRLLQALLPSASQPQPGSTENLYFQSGALEHHHHHH	10 fold
